biological target: T1, recombinant biotinylated CD71 extracellular domain (Sino Biologics) with an N-terminal 6His tag (human, UniProt P02786 89-760, biotinylated (sites not given)); test: screening ELISA, ratio
T1 construct: extracellular domain; also called hCD71; huCD71
T1 sequence (P02786 other isoform, or with tags, fused parts or gaps): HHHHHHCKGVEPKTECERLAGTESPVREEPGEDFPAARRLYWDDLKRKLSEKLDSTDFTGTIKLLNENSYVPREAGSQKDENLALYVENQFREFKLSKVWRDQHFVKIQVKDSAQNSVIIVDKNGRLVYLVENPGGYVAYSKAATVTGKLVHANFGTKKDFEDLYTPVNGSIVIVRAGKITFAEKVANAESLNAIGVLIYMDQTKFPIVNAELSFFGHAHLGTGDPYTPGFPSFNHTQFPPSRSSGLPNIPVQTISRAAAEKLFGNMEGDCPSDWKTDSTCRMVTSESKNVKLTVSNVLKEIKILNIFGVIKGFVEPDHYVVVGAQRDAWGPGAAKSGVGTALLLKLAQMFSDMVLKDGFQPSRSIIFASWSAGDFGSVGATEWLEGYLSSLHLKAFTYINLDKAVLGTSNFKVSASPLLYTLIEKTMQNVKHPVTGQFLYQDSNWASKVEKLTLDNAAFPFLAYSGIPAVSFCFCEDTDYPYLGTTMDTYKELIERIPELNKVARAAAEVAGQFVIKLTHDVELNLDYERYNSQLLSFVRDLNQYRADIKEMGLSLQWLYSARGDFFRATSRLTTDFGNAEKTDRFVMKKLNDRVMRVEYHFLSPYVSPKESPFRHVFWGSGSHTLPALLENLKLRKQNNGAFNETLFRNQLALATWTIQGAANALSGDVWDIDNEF
Parameter: hCD71:HSA

1) SEQ ID NO 225 (designed binder, FN3 domain) MLPAPKNLVVSRVTEDSARLSWTAPDAAFDSFKIEYFEYVGYGEAIVLTVPGSERSYDLTGLKPGTEYYVAIYGVKGGWYSRPLSAIFTT; 210

P. SEQ ID NO 184 (designed binder, FN3 domain) MLPAPKNLVVSRITEDSARLSWTAPDAAFDSFGIGYYEHKRFGEAIQLSVPGSERSYDLTGLKPGTEYEVDIEGVKGGVLSWPLFAEFTT
Q. SEQ ID NO 235 (designed binder, FN3 domain) MLPAPKNLVVSRVTEDSARLSWTAPDAAFDSFSINYREWWSDGEAIYLPVPGSERSYDLTGLKPGTEYAVYIQGVKGGSRSFPLHAWFTT
R. SEQ ID NO 118 (designed binder, FN3 domain) MLPAPKNLVVSRVTEDSARLSWTAPDAAFDSFRILYGEVDPWGEAIVLTVPGSERSYDLTGLKPGTEYDVWIEGVKGGKLSWPLSAIFTT
Query: Hi! Can you put these in order of hCD71:HSA, lowest number first? List the labels according to the requested ordering.
Response: R, P, Q
(R: 119, P: 235, Q: 2910)
